protocol: qHTS assay to identify small molecule antagonists of the retinoid-related orphan receptor gamma (ROR-gamma) signaling pathway - cell viability counter screen (AID 1159520); note: nearly all actives have a fitted effect of over 50% in size
details: Tet-on RORgamma CHO cells viability, ATP luminescence, 16 h; series mostly up to 92.4 µM
Records with an inconclusive call do not appear. Active and inactive are the calls of the source. Calls come from the whole dose curve; as a rule, active = well fitted cell-killing curve with a large enough effect in the repeat runs; inconclusive = weak or mixed curves, or effect the other way; inactive = no such curve, though single readings can be large or run the other way.
I would appreciate it if you answered using one of these outcomes: T = active, F = inactive

What was the test verdict on `CCCCCCCC/C=C/CCCCCCCC1=NCCN1CCO` ?
T

Next:
What was the test verdict on `CC(C)(C)c1ccc(C(=O)CCCN2CCC(OC(c3ccccc3)c3ccccc3)CC2)cc1` ?
T

What was the test verdict on `Cc1c(C)c2c(c(C)c1OC(=O)CCC(=O)O)CC[C@@](C)(CCC[C@H](C)CCC[C@H](C)CCCC(C)C)O2` ?
T

What was the test verdict on `CC(C)=CCOc1ccc(/C=C/C(=O)c2ccc(OCC=C(C)C)cc2OCC(=O)O)cc1` ?
F

What was the test verdict on Clc1ccc(C(Cn2ccnc2)OCc2ccc(Sc3ccccc3)cc2)c(Cl)c1 (stereo not given) ?
F

What was the test verdict on CCCC(C)c1ccccc1O (stereo not given) ?
F

What was the test verdict on `Cc1ccc(O)c(C(C)(C)C)c1` ?
F

What was the test verdict on `Cc1cc(O)c(Cl)c(C)c1Cl` ?
F

What was the test verdict on `COc1cc(-c2nc(NC(=O)c3cc4cc(C)cc(C)c4n3CC(=O)O)sc2CCC2CCCCC2)c(OC)cc1Cl` ?
T

What was the test verdict on CCCCC(CC)COC(=O)c1ccccc1C(=O)O (stereo not given) ?
F

What was the test verdict on `NNC(=O)c1cccc(C(=O)NN)c1` ?
F

What was the test verdict on `CCN(CCC#N)c1ccc(N=Nc2c(Cl)cc([N+](=O)[O-])cc2Cl)cc1` ?
F

What was the test verdict on `CCCCCCCC[N+](CCCCCCCC)(CCCCCCCC)CCCCCCCC` ?
T

What was the test verdict on `CCc1cc(SCc2sc(-c3ccc(C(F)(F)F)cc3)nc2CN2CCN(c3ccc(OC)cc3)CC2)ccc1OCC(=O)O` ?
T

What was the test verdict on `O=C(c1ccc(O)cc1O)c1ccc(O)cc1O` ?
F

What was the test verdict on `Nc1ccccc1O` ?
F

What was the test verdict on CCCCC(CC)COP(=O)(O)OCC(CC)CCCC (stereo not given) ?
F

What was the test verdict on CCCC1O[C@@H]2C[C@H]3[C@@H]4CCC5=CC(=O)C=C[C@]5(C)[C@H]4[C@@H](O)C[C@]3(C)[C@]2(C(=O)CO)O1 (stereo not given in full) ?
F

What was the test verdict on CC(=O)OCC(C)OC(C)=O (stereo not given) ?
F

What was the test verdict on `O=C1C=CC(=O)N1c1ccc(Cc2ccc(N3C(=O)C=CC3=O)cc2)cc1` ?
T

What was the test verdict on `CCCCCCCCCCCCCCCS(=O)(=O)Oc1ccccc1` ?
F

* * *

protocol: qHTS assay to identify small molecule agonists of the hypoxia (HIF-1) signaling pathway - cell viability counter screen (AID 1224844); note: nearly all actives have a fitted effect of over 50% in size
details: HRE-bla ME-180 viability, CellTiter-Glo luminescence, 17 h; series mostly up to 76.8 µM
Description: National Center for Advancing Translational Sciences [NCATS] NIH Chemical Genomics Center [NCGC] U.S. Environmental Protection Agency [EPA] National Institutes of Environmental Health Sciences [NIEHS] National Toxicology Program [NTP] U.S. Food and Drug Administration [FDA] Hypoxia-inducible factor-1 (HIF-1) is the major hypoxia-regulated transcription factor that controls cellular responses to low oxygen concentration. […]
Results filed as inconclusive are left out. Active and inactive are the calls of the source. Calls come from the whole dose curve.
I would appreciate it if you answered using one of these outcomes: 1 (yes) for active, 0 (no) for inactive

What was the test verdict on `COc1cc(/C=C/C(=O)O[C@H]2CC[C@]34C[C@]35CC[C@]3(C)[C@@H]([C@H](C)CCC=C(C)C)CC[C@@]3(C)[C@@H]5CC[C@H]4C2(C)C)ccc1O` ?
0 (no)

What was the test verdict on `OCCCCCCCCCCCCBr` ?
1 (yes)

What was the test verdict on `Oc1ccc2cc(SSc3ccc4cc(O)ccc4c3)ccc2c1` ?
0 (no)

What was the test verdict on `Oc1ccc(N=Nc2ccccc2)cc1` ?
0 (no)

What was the test verdict on Cc1cccc(N(C)C(=S)Oc2ccc3c(c2)C2CCC3C2)c1 (stereo unspecified) ?
0 (no)

Now for a further molecule.
What was the test verdict on `Cc1cccc(S(=O)(=O)O)c1C` ?
0 (no)
